System: SK-OV-3 ovarian
assay-overview: NCI tumour cell line growth inhibition, 48 h
value-type: GI50

[[record]]
compound_structure = "COc1cc(/C=C/c2cc(/C=C/c3ccc(O)c(OC)c3)[nH]c(=O)n2)ccc1O"
value_type = "GI50"
result = "2.33 µM"


Please turn your attention to the following entry.
(Q) What measured GI50 goes with Cc1cc(S(=O)(=O)Nc2nc3cc(-c4ccsc4)sc3c(=O)n2N)c(S)cc1Cl ?
(A) 88.6 µM

* * *

System: SN12C renal
assay-overview: NCI tumour cell line growth inhibition, 48 h
Reported TGI values follow for various molecules
# unit: µM | format: bare number

[[record]]
compound_structure = "Nc1ccc(-c2nc3ccccc3s2)cc1"
quantitative_result = 43.5

[[record]]
compound_structure = "COC(=O)/C=C\\C(C#N)(C#N)N=Cc1ccsc1"
quantitative_result = 9.73


Please turn your attention to the following entry.
(Q) What measured TGI goes with CCCC(=O)Nc1cc(/C=C/C(=O)N2C[C@H]3C[C@@]34C2=CC(=O)c2[nH]cc(C)c24)n(C)c1 ?
(A) 0.257

* * *

Reported GI50 values follow for various compounds
Test system: KM12 colon
assay-overview: NCI tumour cell line growth inhibition, 48 h

Known results for compounds:
[[record]]
compound_structure = "N#Cc1c(NCc2ccccc2)nc(NCc2ccccc2)c(C#N)c1-c1cccc(O)c1"
assay_system = "KM12 colon"
value_type = "GI50"
result = "4.03 µM"

[[record]]
compound_structure = "COc1ccc(S(=O)(=O)n2c3ccccc3n3ncc(-c4nnc(C)o4)c23)cc1"
assay_system = "KM12 colon"
value_type = "GI50"
result = "0.465 µM"

[[record]]
compound_structure = "FC(F)(F)c1cc(NC2=NCCN=C(Nc3cc(C(F)(F)F)cc(C(F)(F)F)c3)SS2)cc(C(F)(F)F)c1"
assay_system = "KM12 colon"
value_type = "GI50"
result = "3.72 µM"

[[record]]
compound_structure = "Cn1c(O)c(N=NC(N)=S)c2ccccc21"
assay_system = "KM12 colon"
value_type = "GI50"
result = "88.3 µM"

[[record]]
compound_structure = "C=C1C[C@@H]2[C@H](CC[C@]3(C)C(=O)CC[C@@H]23)[C@@]2(C)C=CC(=O)C=C12"
assay_system = "KM12 colon"
value_type = "GI50"
result = "30.7 µM"


(Q) What measured GI50 goes with CS(=O)(=O)Nc1cc(-c2ccc3ncnc(Nc4cccc(Cl)c4F)c3c2)cnc1Cl ?
(A) 4.32 µM

(Q) What measured GI50 goes with O=C(Nc1cccc([N+](=O)[O-])c1)c1cc2ccccc2cc1O ?
(A) 2.41 µM

(Q) What measured GI50 goes with Cc1nn2c(/C=C3\C(=O)Nc4ccccc43)c(C)nc2s1 ?
(A) 6.4 µM

* * *

System: SK-OV-3 ovarian
assay-overview: NCI tumour cell line growth inhibition, 48 h
value-type: TGI (µM)
# unit: µM | format: bare number

(Q) What measured TGI goes with COc1cc2c3c(c1OC)Oc1ccc(cc1)CC1c4c(cc(OC)c(OC)c4Oc4ccc(cc4)CC3N(C)CC2)CCN1C (centres undefined) ?
(A) 84.1

(Q) What measured TGI goes with COc1cc(/C=C/c2cc(/C=C/c3ccc(O)c(OC)c3)[nH]c(=O)n2)ccc1O ?
(A) 4.89

* * *

System: HCT-15 colon
assay-overview: NCI tumour cell line growth inhibition, 48 h
value-type: TGI

Known results for compounds:
[[record]]
compound = "S=C(Nc1ccc2c(c1)Cc1ccccc1-2)Nc1ccc2c(c1)Cc1ccccc1-2"
result = "> 100 µM"

[[record]]
compound = "Cc1ccc([N+](=O)[O-])cc1NC(=O)C(=O)C1CCC2=C(Sc3ccccc3N2)C1=O (stereo unspecified)"
result = "> 100 µM"

[[record]]
compound = "C=Cc1cnc([N+](=O)[O-])n1C"
result = "> 100 µM"

[[record]]
compound = "COC(=O)C12C3C4C1C1C2C3C41C(=O)N(C(C)C)C(C)C (stereo unspecified)"
result = "> 100 µM"

[[record]]
compound = "COc1ccc(S(=O)(=O)n2c3ccccc3n3ncc(-c4nnc(C)o4)c23)cc1"
result = "> 75.8 µM"


(Q) What measured TGI goes with CN/N=C(\C(=O)Nc1ccc([N+](=O)[O-])cc1[N+](=O)[O-])C1NC(=O)NC1=O (stereo unspecified) ?
(A) > 100 µM
